Measured values drawn from ChEMBL document CHEMBL1139855 for this set.

Tested on: DNA
Test: Binding affinity at calf thymus double stranded DNA by competition dialysis assay
Type: nucleic-acid assay
Conditions: Bos taurus
Each record here notes measured Kapp.

Below, each entry is followed by its recorded Kapp result.
Kapp of COC(=O)C12OC(C(=O)OC)(C3C4CC(C5C(=O)N(CCNC(=O)c6cccc7cc8ccccc8nc67)C(=O)C45)C31)C1C3CC(C4C(=O)N(CCNc5c6ccccc6nc6ccccc56)C(=O)C34)C12 (configuration not stated) on DNA?
23.1 10^3/M

Kapp of COC(=O)C12OC(C(=O)OC)(C3C4CC(C5C(=O)N(CCNc6c7ccccc7nc7ccccc67)C(=O)C45)C31)C1C3CC(C12)C1C3C2(C(=O)OC)OC1(C(=O)OC)C1C3CC(C4C(=O)N(CCNc5c6ccccc6nc6ccccc56)C(=O)C34)C12 (configuration not stated) on DNA?
30.4 10^3/M

Others:
Kapp of O=C1C2C3C=CC(C3)C2C(=O)N1CCNc1c2ccccc2nc2ccccc12 (configuration not stated) on DNA?
6.27 10^3/M

Kapp of COC(=O)C12OC(C(=O)OC)(C3C4CC(C5C(=O)N(CCNC(=O)c6cccc7cc8ccccc8nc67)C(=O)C45)C31)C1C3CC(C4C(=O)N(CCNC(=O)c5cccc6cc7ccccc7nc56)C(=O)C34)C12 (configuration not stated) on DNA?
16 10^3/M

Kapp of COC(=O)C12OC(C(=O)OC)(C3C4CC(C5C(=O)N(CCNc6c7ccccc7nc7ccccc67)C(=O)C45)C31)C1C3CC(C4C(=O)N(CCNc5c6ccccc6nc6ccccc56)C(=O)C34)C12 (configuration not stated) on DNA?
30.4 10^3/M

Kapp of COC(=O)C12OC(C(=O)OC)(C3C4CC(C5C(=O)N(CCNc6c7ccccc7nc7ccccc67)C(=O)C45)C31)C1C3CC(C4C(=O)N(CCN5C(=O)c6cccc7cccc(c67)C5=O)C(=O)C34)C12 (configuration not stated) on DNA?
8.13 10^3/M

Kapp of FC(F)(F)C12OC(C(F)(F)F)(C3C4CC(C5CN(CCNc6c7ccccc7nc7ccccc67)CC54)C31)C1C3CC(C4CN(CCNc5c6ccccc6nc6ccccc56)CC43)C12 (configuration not stated) on DNA?
20.3 10^3/M

====

Test: Binding affinity at polyA.Poly U dsRNA polynucleotide by competition dialysis assay
Each record here notes measured Kapp.

Below, each entry is followed by its recorded Kapp result.
Give its Kapp value. Item: COC(=O)C12OC(C(=O)OC)(C3C4CC(C5C(=O)N(CCNC(=O)c6cccc7cc8ccccc8nc67)C(=O)C45)C31)C1C3CC(C4C(=O)N(CCNC(=O)c5cccc6cc7ccccc7nc56)C(=O)C34)C12 (configuration not stated)
8.27 10^3/M

Give its Kapp value. Item: COC(=O)C12OC(C(=O)OC)(C3C4CC(C5C(=O)N(CCNc6c7ccccc7nc7ccccc67)C(=O)C45)C31)C1C3CC(C12)C1C3C2(C(=O)OC)OC1(C(=O)OC)C1C3CC(C4C(=O)N(CCNc5c6ccccc6nc6ccccc56)C(=O)C34)C12 (configuration not stated)
25.5 10^3/M

Give its Kapp value. Item: COC(=O)C12OC(C(=O)OC)(C3C4CC(C5C(=O)N(CCNC(=O)c6cccc7cc8ccccc8nc67)C(=O)C45)C31)C1C3CC(C4C(=O)N(CCNc5c6ccccc6nc6ccccc56)C(=O)C34)C12 (configuration not stated)
0.27 10^3/M

Others:
Give its Kapp value. Item: COC(=O)C12OC(C(=O)OC)(C3C4CC(C5C(=O)N(CCNc6c7ccccc7nc7ccccc67)C(=O)C45)C31)C1C3CC(C4C(=O)N(CCN5C(=O)c6cccc7cccc(c67)C5=O)C(=O)C34)C12 (configuration not stated)
0.8 10^3/M

Give its Kapp value. Item: O=C1C2C3C=CC(C3)C2C(=O)N1CCNc1c2ccccc2nc2ccccc12 (configuration not stated)
1.47 10^3/M

Give its Kapp value. Item: FC(F)(F)C12OC(C(F)(F)F)(C3C4CC(C5CN(CCNc6c7ccccc7nc7ccccc67)CC54)C31)C1C3CC(C4CN(CCNc5c6ccccc6nc6ccccc56)CC43)C12 (configuration not stated)
0.53 10^3/M

Give its Kapp value. Item: COC(=O)C12OC(C(=O)OC)(C3C4CC(C5C(=O)N(CCNc6c7ccccc7nc7ccccc67)C(=O)C45)C31)C1C3CC(C4C(=O)N(CCNc5c6ccccc6nc6ccccc56)C(=O)C34)C12 (configuration not stated)
19.2 10^3/M

====

Experiment: Binding affinity at polyA ssRNA by competition dialysis assay
Each record here notes measured Kapp.

Below, each entry is followed by its recorded Kapp result.
Give its Kapp value. Item: O=C1C2C3C=CC(C3)C2C(=O)N1CCNc1c2ccccc2nc2ccccc12 (centres undefined)
0 10^3/M

Give its Kapp value. Item: COC(=O)C12OC(C(=O)OC)(C3C4CC(C5C(=O)N(CCNc6c7ccccc7nc7ccccc67)C(=O)C45)C31)C1C3CC(C12)C1C3C2(C(=O)OC)OC1(C(=O)OC)C1C3CC(C4C(=O)N(CCNc5c6ccccc6nc6ccccc56)C(=O)C34)C12 (centres undefined)
1.47 10^3/M

Give its Kapp value. Item: COC(=O)C12OC(C(=O)OC)(C3C4CC(C5C(=O)N(CCNc6c7ccccc7nc7ccccc67)C(=O)C45)C31)C1C3CC(C4C(=O)N(CCN5C(=O)c6cccc7cccc(c67)C5=O)C(=O)C34)C12 (centres undefined)
0.8 10^3/M

For the next question, use this compound.
Give its Kapp value. Item: FC(F)(F)C12OC(C(F)(F)F)(C3C4CC(C5CN(CCNc6c7ccccc7nc7ccccc67)CC54)C31)C1C3CC(C4CN(CCNc5c6ccccc6nc6ccccc56)CC43)C12 (centres undefined)
1.73 10^3/M

====

Tested on: Triticum aestivum
Assay: Binding affinity at wheat germ single stranded RNA by competition assay
measurement.label: Kapp

Kapp of COC(=O)C12OC(C(=O)OC)(C3C4CC(C5C(=O)N(CCNC(=O)c6cccc7cc8ccccc8nc67)C(=O)C45)C31)C1C3CC(C4C(=O)N(CCNC(=O)c5cccc6cc7ccccc7nc56)C(=O)C34)C12 (stereo not drawn) on Triticum aestivum?
0.53 10^3/M

Kapp of COC(=O)C12OC(C(=O)OC)(C3C4CC(C5C(=O)N(CCNC(=O)c6cccc7cc8ccccc8nc67)C(=O)C45)C31)C1C3CC(C4C(=O)N(CCNc5c6ccccc6nc6ccccc56)C(=O)C34)C12 (stereo not drawn) on Triticum aestivum?
0.27 10^3/M

For the next question, use this molecule.
Kapp of FC(F)(F)C12OC(C(F)(F)F)(C3C4CC(C5CN(CCNc6c7ccccc7nc7ccccc67)CC54)C31)C1C3CC(C4CN(CCNc5c6ccccc6nc6ccccc56)CC43)C12 (stereo not drawn) on Triticum aestivum?
0.53 10^3/M

====

Assay: Binding affinity at poly (dAdT). poly (dAdT) dsDNA polynucleotide by competition dialysis assay
measurement.label: Kapp

Give its Kapp value. Item: COC(=O)C12OC(C(=O)OC)(C3C4CC(C5C(=O)N(CCNC(=O)c6cccc7cc8ccccc8nc67)C(=O)C45)C31)C1C3CC(C4C(=O)N(CCNc5c6ccccc6nc6ccccc56)C(=O)C34)C12 (configuration not stated)
29.5 10^3/M

Give its Kapp value. Item: COC(=O)C12OC(C(=O)OC)(C3C4CC(C5C(=O)N(CCNc6c7ccccc7nc7ccccc67)C(=O)C45)C31)C1C3CC(C12)C1C3C2(C(=O)OC)OC1(C(=O)OC)C1C3CC(C4C(=O)N(CCNc5c6ccccc6nc6ccccc56)C(=O)C34)C12 (configuration not stated)
31.7 10^3/M

Give its Kapp value. Item: COC(=O)C12OC(C(=O)OC)(C3C4CC(C5C(=O)N(CCNc6c7ccccc7nc7ccccc67)C(=O)C45)C31)C1C3CC(C4C(=O)N(CCN5C(=O)c6cccc7cccc(c67)C5=O)C(=O)C34)C12 (configuration not stated)
14.4 10^3/M

Give its Kapp value. Item: FC(F)(F)C12OC(C(F)(F)F)(C3C4CC(C5CN(CCNc6c7ccccc7nc7ccccc67)CC54)C31)C1C3CC(C4CN(CCNc5c6ccccc6nc6ccccc56)CC43)C12 (configuration not stated)
29.5 10^3/M

Give its Kapp value. Item: O=C1C2C3C=CC(C3)C2C(=O)N1CCNc1c2ccccc2nc2ccccc12 (configuration not stated)
12.1 10^3/M

Others:
Give its Kapp value. Item: COC(=O)C12OC(C(=O)OC)(C3C4CC(C5C(=O)N(CCNC(=O)c6cccc7cc8ccccc8nc67)C(=O)C45)C31)C1C3CC(C4C(=O)N(CCNC(=O)c5cccc6cc7ccccc7nc56)C(=O)C34)C12 (configuration not stated)
13.9 10^3/M

Give its Kapp value. Item: COC(=O)C12OC(C(=O)OC)(C3C4CC(C5C(=O)N(CCNc6c7ccccc7nc7ccccc67)C(=O)C45)C31)C1C3CC(C4C(=O)N(CCNc5c6ccccc6nc6ccccc56)C(=O)C34)C12 (configuration not stated)
38.9 10^3/M
